biological target: recombinant human HDAC6 (rHDAC6) (Homo sapiens); construct: purchased BPS Bioscience (US); assay: rHDAC6 inhibition, coupled Boc-Lys(Ac)-AMC/trypsin fluorescence assay; type: biochemical; details: purified recombinant human HDAC6
Sequence (Q9UBN7 whole entry): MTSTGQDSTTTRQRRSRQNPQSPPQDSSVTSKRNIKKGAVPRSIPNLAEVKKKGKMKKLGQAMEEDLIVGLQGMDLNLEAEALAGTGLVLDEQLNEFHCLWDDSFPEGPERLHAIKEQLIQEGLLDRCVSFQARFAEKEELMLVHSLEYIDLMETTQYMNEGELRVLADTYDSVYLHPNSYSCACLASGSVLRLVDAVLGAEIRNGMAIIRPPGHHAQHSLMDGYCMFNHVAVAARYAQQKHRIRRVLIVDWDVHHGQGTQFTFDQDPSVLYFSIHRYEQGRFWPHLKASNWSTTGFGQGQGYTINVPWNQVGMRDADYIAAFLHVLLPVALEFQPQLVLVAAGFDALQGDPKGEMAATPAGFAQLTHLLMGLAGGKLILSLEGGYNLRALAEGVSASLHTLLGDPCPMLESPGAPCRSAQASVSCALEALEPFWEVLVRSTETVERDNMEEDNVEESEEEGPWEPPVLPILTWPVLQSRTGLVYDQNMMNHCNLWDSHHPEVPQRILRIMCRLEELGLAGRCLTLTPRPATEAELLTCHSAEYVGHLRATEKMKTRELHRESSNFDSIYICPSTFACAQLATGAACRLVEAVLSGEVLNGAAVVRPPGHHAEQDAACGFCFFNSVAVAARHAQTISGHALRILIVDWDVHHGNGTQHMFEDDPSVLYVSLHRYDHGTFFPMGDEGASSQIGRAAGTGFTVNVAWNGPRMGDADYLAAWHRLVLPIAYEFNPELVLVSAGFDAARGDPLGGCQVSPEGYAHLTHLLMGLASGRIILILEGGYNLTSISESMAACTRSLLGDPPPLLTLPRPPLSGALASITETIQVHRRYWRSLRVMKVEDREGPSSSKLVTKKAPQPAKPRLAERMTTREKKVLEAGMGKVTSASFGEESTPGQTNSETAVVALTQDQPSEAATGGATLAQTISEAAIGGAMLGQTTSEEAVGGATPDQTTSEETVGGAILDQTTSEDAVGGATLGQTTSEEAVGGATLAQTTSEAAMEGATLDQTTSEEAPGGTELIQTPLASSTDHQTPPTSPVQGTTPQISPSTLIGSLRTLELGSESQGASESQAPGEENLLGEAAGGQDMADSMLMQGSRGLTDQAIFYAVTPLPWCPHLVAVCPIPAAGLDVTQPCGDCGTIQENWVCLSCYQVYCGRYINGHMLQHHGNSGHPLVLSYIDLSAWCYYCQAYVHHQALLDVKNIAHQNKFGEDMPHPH
pIC50: −log10 of the molar value.
ENDPOINT NAME: pIC50

compound="CO/N=C(\\Cc1ccc(OC)c(Br)c1)C(=O)NCCSC(C)=O [Compound 7]" limit_operator=< numeric_readout=4.30
compound="COc1ccc(C/C(=N\\O)C(=O)NCCSC(C)=O)cc1Br [Compound 8]" limit_operator== numeric_readout=4.64
compound="COc1ccc(CC(=O)C(=O)NCCSC(C)=O)cc1Br [Compound 9]" limit_operator== numeric_readout=5.02
compound="O=C(NCCS)/C(Cc1ccc(O)c(Br)c1)=N/O [PSA-SH (4)]" limit_operator== numeric_readout=6.44
compound="O=C(NCCSSCCNC(=O)/C(Cc1ccc(O)c(Br)c1)=N/O)/C(Cc1ccc(O)c(Br)c1)=N/O [PSA (3), psammaplin A]" limit_operator== numeric_readout=5.55

---

Target: rHDAC1 (Homo sapiens, UniProt Q13547)
Construct: purchased BPS Bioscience (US)
Sequence (Q13547 whole entry): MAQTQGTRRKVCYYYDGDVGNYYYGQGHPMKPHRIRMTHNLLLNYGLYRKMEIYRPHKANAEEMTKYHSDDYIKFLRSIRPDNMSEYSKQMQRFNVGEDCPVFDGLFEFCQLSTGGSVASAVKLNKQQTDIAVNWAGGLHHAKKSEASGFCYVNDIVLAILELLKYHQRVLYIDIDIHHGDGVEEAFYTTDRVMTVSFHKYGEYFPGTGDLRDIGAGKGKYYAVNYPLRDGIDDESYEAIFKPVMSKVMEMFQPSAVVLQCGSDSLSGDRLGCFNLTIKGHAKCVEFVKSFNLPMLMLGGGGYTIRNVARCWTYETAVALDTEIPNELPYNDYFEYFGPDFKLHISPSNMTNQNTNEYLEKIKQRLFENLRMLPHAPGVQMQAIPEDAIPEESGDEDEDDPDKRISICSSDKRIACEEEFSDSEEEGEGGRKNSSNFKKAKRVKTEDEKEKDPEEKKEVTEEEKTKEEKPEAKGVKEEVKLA
Assay: rHDAC1 inhibition, coupled Boc-Lys(Ac)-AMC/trypsin fluorescence assay
Type: biochemical
Conditions: purified recombinant human HDAC1
Experimental: HDAC assays were performed as previously reported. The recombinant human histone deacetylases rHDAC1 and rHDAC6 were obtained from BPS Bioscience (US). […] The enzyme reaction was initiated by the addition of Boc-Lys(Ac)-AMC substrate. […] The fluorescence of AMC served as an indirect measure of HDAC enzyme activity. The kinetics of AMC release was measured on a PolarStar fluorescence plate reader (BMG) with an excitation wavelength of 340 nm and an emission wavelength of 460 nm. […]
ENDPOINT NAME: log10 IC50 (log10 of the value in nM)

structure=O=C(NCCSSCCNC(=O)/C(Cc1ccc(O)c(Br)c1)=N/O)/C(Cc1ccc(O)c(Br)c1)=N/O numeric_readout=1.65
structure=COc1ccc(CC(=O)C(=O)NCCSC(C)=O)cc1Br numeric_readout=2.68
structure=CO/N=C(\Cc1ccc(OC)c(Br)c1)C(=O)NCCSC(C)=O numeric_readout=2.08
structure=COc1ccc(C/C(=N\O)C(=O)NCCSC(C)=O)cc1Br numeric_readout=0.70
structure=O=C(NCCS)/C(Cc1ccc(O)c(Br)c1)=N/O numeric_readout=0.00

---

system: A549 (human lung carcinoma); assay: Cytotoxicity against A549 cell line; assay type: cell-based; conditions: Homo sapiens; A549 cells
ENDPOINT NAME: IC50 (µM)

compound="CO/N=C(\\Cc1ccc(OC)c(Br)c1)C(=O)NCCSC(C)=O [Compound 7]" target_desc="A549 (human lung carcinoma)" limit_operator== numeric_readout=44
compound="O=C(NCCSSCCNC(=O)/C(Cc1ccc(O)c(Br)c1)=N/O)/C(Cc1ccc(O)c(Br)c1)=N/O [PSA (3), psammaplin A]" target_desc="A549 (human lung carcinoma)" limit_operator== numeric_readout=7.5
compound="COc1ccc(CC(=O)C(=O)NCCSC(C)=O)cc1Br [Compound 9]" target_desc="A549 (human lung carcinoma)" limit_operator=> numeric_readout=50
compound="COc1ccc(C/C(=N\\O)C(=O)NCCSC(C)=O)cc1Br [Compound 8]" target_desc="A549 (human lung carcinoma)" limit_operator== numeric_readout=8.3
compound="O=C(NCCS)/C(Cc1ccc(O)c(Br)c1)=N/O [PSA-SH (4)]" target_desc="A549 (human lung carcinoma)" limit_operator== numeric_readout=2.5

---

system: MCF7 (human breast carcinoma); test: Cytotoxicity against MCF7 cell line; assay type: cell-based; settings: MCF7 cells
Threshold-based label: IC50 under 2 µM gives t, IC50 not under 2 µM gives f.

compound="O=C(NCCSSCCNC(=O)/C(Cc1ccc(O)c(Br)c1)=N/O)/C(Cc1ccc(O)c(Br)c1)=N/O [PSA (3), psammaplin A]" group_label=t
compound="COc1ccc(CC(=O)C(=O)NCCSC(C)=O)cc1Br [Compound 9]" group_label=f
compound="O=C(NCCS)/C(Cc1ccc(O)c(Br)c1)=N/O [PSA-SH (4)]" group_label=f
compound="COc1ccc(C/C(=N\\O)C(=O)NCCSC(C)=O)cc1Br [Compound 8]" group_label=f
compound="CO/N=C(\\Cc1ccc(OC)c(Br)c1)C(=O)NCCSC(C)=O [Compound 7]" group_label=f
